Attribute: Percentage inhibition of ligand binding, Adrenergic α2B (10 nM)
# TESTED TARGET: Human adrenergic α2B receptor (Homo sapiens)
# Sequence (P18089 1-450): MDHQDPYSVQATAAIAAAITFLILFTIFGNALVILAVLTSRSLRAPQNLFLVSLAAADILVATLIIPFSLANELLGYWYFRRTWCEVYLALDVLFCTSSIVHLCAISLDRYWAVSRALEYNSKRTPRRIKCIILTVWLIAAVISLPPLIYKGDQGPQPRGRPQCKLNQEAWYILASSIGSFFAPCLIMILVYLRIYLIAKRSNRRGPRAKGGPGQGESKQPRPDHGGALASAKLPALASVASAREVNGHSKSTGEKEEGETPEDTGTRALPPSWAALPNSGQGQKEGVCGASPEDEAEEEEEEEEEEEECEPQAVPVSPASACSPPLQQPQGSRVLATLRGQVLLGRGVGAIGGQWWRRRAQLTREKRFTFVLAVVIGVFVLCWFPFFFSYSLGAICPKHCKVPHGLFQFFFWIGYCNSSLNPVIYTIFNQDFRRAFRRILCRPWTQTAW
# RUN DESCRIPTION: Radioligand binding, adrenergic α2B (Protocol Group B)
# Set-up: purchased Milipore (Millipore)
# TEST CONDITIONS: 10 nM compound; Protocol Group B; 0.01 µM
Be sure to follow the number with its unit.

Percentage inhibition of ligand binding, Adrenergic α2B (10 nM) recorded for this compound, CC(O)(Cn1c2c(c3cc(Cl)cc(F)c31)CN1CCCC1C2)c1ccncc1 (single isomer, unassigned) [86d] , is 13%

Percentage inhibition of ligand binding, Adrenergic α2B (10 nM) recorded for this compound, Cc1cc(F)cc2c3c(n(CC(O)c4ccncc4)c12)CCN1CCCC31 (single isomer, unassigned) [136b] , is 76%

Percentage inhibition of ligand binding, Adrenergic α2B (10 nM) recorded for this compound, OC(Cn1c2c(c3cc(Cl)cc(F)c31)C1CCCN1CC2)c1ccncc1 (single isomer, unassigned) [135b] , is 84%

Percentage inhibition of ligand binding, Adrenergic α2B (10 nM) recorded for this compound, Cc1cc(F)cc2c3c(n(CC(C)(O)c4ccncc4)c12)CC1CCCN1C3 (single isomer, unassigned) [78a] , is −1%

Percentage inhibition of ligand binding, Adrenergic α2B (10 nM) recorded for this compound, Cc1cc(F)cc2c3c(n(CC(C)(O)c4ccncc4)c12)CC1CCCN1C3 (single isomer, unassigned) [78d] , is 1%

Percentage inhibition of ligand binding, Adrenergic α2B (10 nM) recorded for this compound, Cc1cc(F)cc2c3c(n(CC(C)(O)c4cccnc4)c12)CC1CCCN1C3 (single isomer, unassigned) [76b] , is 11%

Percentage inhibition of ligand binding, Adrenergic α2B (10 nM) recorded for this compound, Cc1cc(C)c2c(c1)c1c(n2CC(C)(O)c2cccnc2)CCN2CCCC12 (single isomer, unassigned) [44b] , is 98%

Percentage inhibition of ligand binding, Adrenergic α2B (10 nM) recorded for this compound, Cc1cc(F)cc2c3c(n(CC(C)(O)c4ccncc4)c12)CC1CCCN1C3 (single isomer, unassigned) [78c] , is 20%

Percentage inhibition of ligand binding, Adrenergic α2B (10 nM) recorded for this compound, CC(O)(Cn1c2c(c3cc(F)cc(Cl)c31)C1CCCN1CC2)c1ccncc1 (single isomer, unassigned) [88b] , is 70%

Percentage inhibition of ligand binding, Adrenergic α2B (10 nM) recorded for this compound, Cc1cc(F)c2c(c1)c1c(n2CC(C)(O)c2cccnc2)CC2CCCN2C1 (single isomer, unassigned) [61d] , is 0%

Percentage inhibition of ligand binding, Adrenergic α2B (10 nM) recorded for this compound, Cc1cc(F)c2c(c1)c1c(n2CC(C)(O)c2ccncc2)CC2CCCN2C1 (single isomer, unassigned) [62b] , is 12%

Percentage inhibition of ligand binding, Adrenergic α2B (10 nM) recorded for this compound, Cc1ccc2c(c1)c1c(n2CC(C)(O)c2ccncc2)CCN2CCCC12 (single isomer, unassigned) [13d] , is 7%

Percentage inhibition of ligand binding, Adrenergic α2B (10 nM) recorded for this compound, Cc1ccc2c(c1F)c1c(n2CC(C)(O)c2cccnc2)CCN2CCCC12 (single isomer, unassigned) [87c] , is 96%

Percentage inhibition of ligand binding, Adrenergic α2B (10 nM) recorded for this compound, CC(O)(Cn1c2c(c3cc(Cl)cc(F)c31)CN1CCCC1C2)c1cccnc1 (single isomer, unassigned) [63d] , is −10%

Percentage inhibition of ligand binding, Adrenergic α2B (10 nM) recorded for this compound, Cc1ccc2c(c1)c1c(n2CC(C)(O)c2ccc(N(C)C)nc2)CCN(C)C1 (single isomer, unassigned) [39a] , is 15%

Percentage inhibition of ligand binding, Adrenergic α2B (10 nM) recorded for this compound, CC(O)(Cn1c2c(c3cc(C(F)(F)F)ccc31)C1CCCN1CC2)c1cccnc1 (single isomer, unassigned) [64a] , is 73%

Percentage inhibition of ligand binding, Adrenergic α2B (10 nM) recorded for this compound, Cc1ccc2c(c1)c1c(n2CC(O)c2ccccn2)CC2CCCN2C1 (single isomer, unassigned) [45d] , is −10%

Percentage inhibition of ligand binding, Adrenergic α2B (10 nM) recorded for this compound, Cc1cc2c3c(n(CC(C)(O)c4ccncc4)c2cc1Cl)CCN1CCCC31 (single isomer, unassigned) [50b] , is 98%
